All values here come from patent US9695155B2.

Test system: field poppy
Assay: Test D postemergence
Type: in vivo, Papaver rhoeas
Settings: Papaver rhoeas, post-emergence, 250 g ai/ha, scale 0 to 100 (0 no effect, 100 complete control), read-out: Plant response rating, Field Poppy
value.type: pest or weed control at 250 g/ha (%)
Numbers only, in %.

molecule	value.type	value.reported
N#Cc1cccc(Oc2ncc(Cl)cn2)c1-n1cc(C(F)(F)F)cn1 [Compound 58]	pest or weed control at 250 g/ha	100
FC(F)(F)c1cnn(-c2ccccc2Oc2ncc(Br)cn2)c1 [Compound 18]	pest or weed control at 250 g/ha	100
N#Cc1cccc(Oc2ncc(Br)cn2)c1-n1cc(C(F)(F)F)cn1 [Compound 59]	pest or weed control at 250 g/ha	100

# get_value(readout='pest or weed control at 250 g/ha', item= Clc1cnc(Oc2ccccc2-n2cc(Br)cn2)nc1 [Compound 7] )
60
